// provenance: ChEMBL document CHEMBL4665643

assay: in vitro; conditions: dog, MDCK
Description: Efflux ratio of apparent permeability basolateral to apical over apical to basolateral side in MDCK cells at 10 uM incubated upto 180 mins by LC/MS-MS analysis
test-readout: efflux ratio at 3 h, 10 µM
The response must contain the number and no unit.

structure-string | recorded-result
Nc1nn2cccnc2c1C(=O)Nc1c[nH]nc1-c1cc(Cl)ccc1OC(F)F | 0.83
O=C(Nc1c[nH]nc1-c1cc(Br)ccc1OC(F)F)c1cnn2cccnc12 | 1.2
C[C@@H](O)c1nc2cnc3[nH]ccc3c2n1[C@H]1CCCOC1 | 0.81
O=C(Nc1c[nH]nc1-c1cc(Cl)ccc1OC(F)F)c1cnn2cccnc12 | 1.1
O=C(Nc1c[nH]nc1-c1cc2cn[nH]c2cc1OC(F)F)c1cnn2cccnc12 | 1

# input I would be grateful if you could share the reported efflux ratio at 3 h, 10 µM for CCn1c(C(=O)N(C2CC2)C2CC2)cc2c3c(ncn3C)c(Nc3cc(C)n(C)n3)nc21 .
# output 0.94

# input Name the reported efflux ratio at 3 h, 10 µM value associated with the compound Cc1cc(Nc2nccc3nc(-c4c(Cl)cc(C#N)cc4Cl)[nH]c23)ncn1
# output 0.81

# input # efflux ratio at 3 h, 10 µM lookup, item Cn1cc(NC(=O)c2cnn3cccnc23)c(-c2cc(Cl)ccc2OC(F)F)n1
# output 0.55

# input Dear colleague, I am looking for the recorded efflux ratio at 3 h, 10 µM of the following compound: O=C(Nc1c[nH]nc1-c1cc(I)ccc1OC(F)F)c1cnn2cccnc12
# output 1

# input // query efflux ratio at 3 h, 10 µM value for entry O=C(Nc1c[nH]nc1-c1cc2ccccc2cc1OC(F)F)c1cnn2cccnc12
# output 1.2

# input Request the reported efflux ratio at 3 h, 10 µM associated with O=C(Nc1c[nH]nc1-c1cc(Cl)ccc1OC(F)F)c1cncc2c[nH]nc12
# output 1.9

###

Measured Papp A→B at 3 h, 10 µM, listed per entry for reference.
assay: in vitro; details: dog, MDCK
Description: Apparent permeability across apical to basolateral side in MDCK cells at 10 uM incubated upto 180 mins by LC/MS-MS analysis
Return type: number; implicit unit ×10⁻⁶ cm/s.

structure-string | recorded-result
O=C(Nc1c[nH]nc1-c1cc2cn[nH]c2cc1OC(F)F)c1cnn2cccnc12 | 1.6
O=C(Nc1c[nH]nc1-c1cc(Br)ccc1OC(F)F)c1cnn2cccnc12 | 17

Read the next record carefully.
# input Fill blank: measured Papp A→B at 3 h, 10 µM of the compound C[C@@H](O)c1nc2cnc3[nH]ccc3c2n1[C@H]1CCCOC1 is ____.
# output 6.2

###

Endpoint: pKi. System: UniProtKB P23458. Items follow.
Sequence (P23458 whole entry): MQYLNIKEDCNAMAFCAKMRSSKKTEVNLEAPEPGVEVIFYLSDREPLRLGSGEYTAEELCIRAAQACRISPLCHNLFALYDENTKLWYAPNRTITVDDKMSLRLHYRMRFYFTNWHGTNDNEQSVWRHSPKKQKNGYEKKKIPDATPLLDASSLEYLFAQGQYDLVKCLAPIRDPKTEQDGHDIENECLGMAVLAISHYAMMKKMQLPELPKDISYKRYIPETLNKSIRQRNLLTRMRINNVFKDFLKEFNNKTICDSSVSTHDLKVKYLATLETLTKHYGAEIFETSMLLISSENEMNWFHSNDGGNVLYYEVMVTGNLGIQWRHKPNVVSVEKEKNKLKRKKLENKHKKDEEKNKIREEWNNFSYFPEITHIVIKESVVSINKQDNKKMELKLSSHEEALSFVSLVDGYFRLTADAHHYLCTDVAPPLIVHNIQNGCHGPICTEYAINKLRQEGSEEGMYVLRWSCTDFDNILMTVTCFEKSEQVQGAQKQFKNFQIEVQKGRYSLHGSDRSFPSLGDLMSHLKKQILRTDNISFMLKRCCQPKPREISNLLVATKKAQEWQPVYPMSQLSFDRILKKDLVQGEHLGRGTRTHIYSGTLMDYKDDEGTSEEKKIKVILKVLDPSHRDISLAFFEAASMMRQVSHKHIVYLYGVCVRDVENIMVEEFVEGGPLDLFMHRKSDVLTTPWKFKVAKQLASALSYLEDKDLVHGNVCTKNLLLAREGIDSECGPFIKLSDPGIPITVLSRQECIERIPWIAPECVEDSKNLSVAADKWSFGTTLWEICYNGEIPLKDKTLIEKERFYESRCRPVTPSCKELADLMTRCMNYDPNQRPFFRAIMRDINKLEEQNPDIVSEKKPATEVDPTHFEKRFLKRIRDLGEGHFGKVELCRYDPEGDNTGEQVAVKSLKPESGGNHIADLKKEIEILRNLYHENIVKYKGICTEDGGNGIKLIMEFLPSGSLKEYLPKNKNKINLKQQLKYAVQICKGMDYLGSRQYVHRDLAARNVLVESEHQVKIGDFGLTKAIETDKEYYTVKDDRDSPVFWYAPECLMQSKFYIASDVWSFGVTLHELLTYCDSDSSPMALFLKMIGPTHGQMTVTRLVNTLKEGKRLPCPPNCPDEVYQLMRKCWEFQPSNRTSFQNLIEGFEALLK
As a rule, pKi stands for the negative log10 of the concentration, concentration in M.

Please review the following examples before continuing.
molecule | assayed-system | test-readout | recorded-result
CC(C)Oc1ccc(Cl)cc1-c1nn(C)cc1NC(=O)c1cnn2cccnc12 | UniProtKB P23458 | pKi | 8.10
Cn1cc(NC(=O)c2cnn3cccnc23)c(-c2cc(Cl)ccc2OC(F)F)n1 | UniProtKB P23458 | pKi | 9.68
N#Cc1ccc(OC(F)F)c(-c2n[nH]cc2NC(=O)c2cnn3cccnc23)c1 | UniProtKB P23458 | pKi | 9.05
COc1ccc(Cl)cc1-c1nn(C)cc1NC(=O)c1cncc2cccnc12 | UniProtKB P23458 | pKi | 8.72
CCn1c(C(=O)N(C2CC2)C2CC2)cc2c3c(ncn3C)c(Nc3cc(C)n(C)n3)nc21 [BMS-911543] | UniProtKB P23458 | pKi | 6.44
COc1ccc(Cl)cc1-c1n[nH]cc1NC(=O)c1cnn2cccnc12 | UniProtKB P23458 | pKi | 9.05
COc1ccc(Cl)cc1-c1nn(C)cc1NC(=O)c1cncc2cn(C)nc12 | UniProtKB P23458 | pKi | 8.37
O=C(Nc1c[nH]nc1-c1ccccc1OC(F)F)c1cnn2cccnc12 | UniProtKB P23458 | pKi | 8.48
COc1c(F)cc(Cl)cc1-c1n[nH]cc1NC(=O)c1cnn2cccnc12 | UniProtKB P23458 | pKi | 8.04
O=C(Nc1c[nH]nc1-c1cc(Cl)ccc1OC(F)F)c1cncc2scnc12 | UniProtKB P23458 | pKi | 9.29

# input Please state recorded pKi (tested on UniProtKB P23458) of CSc1ccc(Cl)cc1-c1nn(C)cc1NC(=O)c1cnn2cccnc12
# output 9.34

# input Could you share what pKi was measured for O=C(Nc1c[nH]nc1-c1cc2cn[nH]c2cc1OC(F)F)c1cnn2cccnc12 , tested on UniProtKB P23458?
# output 10.12

# input // fetch UniProtKB P23458 pKi for COc1ccc(Cl)cc1-c1nn(C)cc1NC(=O)c1cncc2[nH]nnc12
# output 6.43

# input Write down the reported pKi of O=C(Nc1c[nH]nc1-c1cc(Cl)ccc1OC1CC1)c1cnn2cccnc12 , test system: UniProtKB P23458.
# output 8.89

# input Record O=C(Nc1c[nH]nc1-c1cc(Br)ccc1OC(F)F)c1cnn2cccnc12 : what is its pKi with UniProtKB P23458?
# output 9.92

# input Provide the documented pKi with UniProtKB P23458 as the system for O=C(Nc1c[nH]nc1-c1cc(Cl)ccc1OC(F)F)c1cnn2cccnc12
# output 9.68

# input Hello, I am looking for reported pKi with UniProtKB P23458 for O=C(Nc1c[nH]nc1-c1cc(Cl)ccc1OC(F)F)c1snc2cccnc12 . Could you help?
# output 9.33

# input Value wanted: pKi (UniProtKB P23458) of entry Cn1ncc(NC(=O)c2cnn3cccnc23)c1-c1cc(Cl)ccc1Cl
# output 7.41

# input Write down the reported pKi of Cn1cc(NC(=O)c2cnn3cccnc23)c(-c2cc(Cl)ccc2CCO)n1 , test system: UniProtKB P23458.
# output 7.92

# input Query for UniProtKB P23458: what pKi does the record show for Cn1cc(NC(=O)c2cnn3cccnc23)c(-c2cc(Cl)ccc2CO)n1 ?
# output 7.35
